Values from the supplement of paper PMC4932681

relative IC50 values for the compounds below.
Test system: ZR-75-1 Tam1
Experiment: relative IC50 (midpoint of fitted logistic curve, plateau may be below 50% inhibition; CellTiter-Glo viability); higher = less potent
Conditions: 4-OH-tamoxifen in medium 1 µM; 72 h

// worked examples, relative IC50 included
For the compound COc1c2occc2cc2ccc(=O)oc12 [Methoxsalen] , what relative IC50 is on record?
> 10 µM

For the compound N#Cc1ccc(C(c2ccc(C#N)cc2)n2cncn2)cc1 [Letrozole] , what relative IC50 is on record?
> 10 µM

For the compound CC(=O)Nc1ccc(C(=O)Nc2ccccc2N)cc1 [Tacedinaline (CI-994)] , what relative IC50 is on record?
> 1 µM

For the compound CCCS(=O)(=O)Nc1ccc(F)c(C(=O)c2c[nH]c3ncc(-c4ccc(Cl)cc4)cc23)c1F [Vemurafenib (PLX4032)] , what relative IC50 is on record?
> 10 µM

For the compound C[C@@H]1CCN(C(=O)CC#N)C[C@@H]1N(C)c1ncnc2[nH]ccc12 [Tofacitinib (Tasocitinib)] , what relative IC50 is on record?
> 5 µM

For the compound O=S(=O)(c1cccc2cnccc12)N1CCCNCC1 [Fasudil (HA-1077)] , what relative IC50 is on record?
> 50 µM

Now look at this entry.
For the compound COc1cc(CCc2cc(NC(=O)c3ccc(N4CC(C)NC(C)C4)cc3)n[nH]2)cc(OC)c1 (configuration not stated) [AZD4547] , what relative IC50 is on record?
> 1 µM

---

System: BT-474
Assay: viability inhibition at highest dose (% inhibition); higher = more growth inhibition
Conditions: 4-OH-tamoxifen in medium 1 µM; 72 h
Mark 1 (yes) only when viability inhibition at highest dose stays strictly below -10. Values equal to the cut-off are 0 (no).

These recorded examples may help you get a feel for the data.
Below -10 on viability inhibition at highest dose? Entry CS(=O)(=O)c1ccc(C(=O)Nc2ccc(Cl)c(-c3ccccn3)c2)c(Cl)c1 [Vismodegib] (drug 10000 nM)
0 (no)

Below -10 on viability inhibition at highest dose? Entry CO[C@H]1/C=C\C=C(/C)C(=O)NC2=CC(=O)C(NCCN(C)C)=C(C[C@@H](C)C[C@H](OC)[C@H](O)[C@@H](C)/C=C(\C)[C@@H]1OC(N)=O)C2=O [Alvespimycin (17-DMAG)] (drug 1000 nM)
0 (no)

Below -10 on viability inhibition at highest dose? Entry C[C@]12C=CC(=O)C=C1CC[C@@H]1[C@@H]2[C@@H](O)C[C@@]2(C)[C@H]1CC[C@]2(O)C(=O)CO [Prednisolone] (drug 10000 nM)
0 (no)

***
Below -10 on viability inhibition at highest dose? Entry O=P1(N(CCCl)CCCl)NCCCO1 (stereo not given) [Clafen (Cyclophosphamide, Endoxan)] (drug 40000 nM)
1 (yes)

Below -10 on viability inhibition at highest dose? Entry Nc1ccn([C@@H]2O[C@H](CO)[C@@H](O)[C@@H]2O)c(=O)n1 [Cytarabine] (drug 10000 nM)
0 (no)

Below -10 on viability inhibition at highest dose? Entry Cc1ccc(C(=O)Nc2ccc(CN3CCN(C)CC3)c(C(F)(F)F)c2)cc1C#Cc1cnc2cccnn12 (drug 1000 nM)
0 (no)

Below -10 on viability inhibition at highest dose? Entry C1CN1c1nc(N2CC2)nc(N2CC2)n1 [Triethylenemelamine] (drug 10000 nM)
0 (no)

Below -10 on viability inhibition at highest dose? Entry CCNC(=O)CCC/C=C\C[C@@H]1[C@@H](/C=C/[C@@H](O)CCc2ccccc2)[C@H](O)C[C@@H]1O [Bimatoprost] (drug 5500 nM)
1 (yes)

Below -10 on viability inhibition at highest dose? Entry C[C@@H]1CCN(C(=O)CC#N)C[C@@H]1N(C)c1ncnc2[nH]ccc12 [Tofacitinib (Tasocitinib)] (drug 5000 nM)
1 (yes)

Below -10 on viability inhibition at highest dose? Entry CC1(C)CNc2cc(NC(=O)c3cccnc3NCc3ccncc3)ccc21 [Motesanib (AMG-706)] (drug 10000 nM)
1 (yes)
